- system_tested: DNA-dependent protein kinase (DNA-PK) (Homo sapiens)
- Construct: endogenous in cells; host or cells: Jurkat (ATCC TIB-152, clone E6-1) and Ramos (ATCC CRL-1596), 1:1 lysate mix
- protocol: kinobeads assay, DNA-PK
- Format: binding
- assay_conditions: 1:1 mix of Jurkat and Ramos cell lysates, read-out: Inhibition values (IC50 in μM) as determined in the kinobeads assay, DNA-PK
- Method: The compounds of the present invention as described were tested in the mTOR kinobeads assay as described below. […] Bound proteins were then eluted and the presence of mTOR, PI3Kα, PI3Kβ, PI3Kγ, PI3Kδ and DNA-dependent protein kinase (DNA-PK) was detected and quantified using a specific antibody in a dot blot procedure and the Odyssey infrared detection system. Dose response curves for individual kinases were generated and IC50 values calculated. […]
assay_endpoint: IC50

{"columns": ["substance_smiles", "IC50"],
 "data": [
  ["C[C@H]1COCCN1c1nc2c(c(-c3ccc(NC(=O)NC4CC4)cc3)n1)CN(S(C)(=O)=O)C2", "> 100 µM"]
]}

Give measured IC50 for every item shown.
1. C[C@H]1COCCN1c1nc2c(c(-c3ccc(NC(=O)NC4CC4)cc3)n1)CN(S(=O)(=O)C1CC1)C2
2. C[C@H]1COCCN1c1nc2c(c(-c3ccc(NC(=O)NC4CC4)cc3)n1)CN(C(=O)CO)C2

Result:
1. > 100 µM
2. > 100 µM

====

- system_tested: PI3Kα (Homo sapiens, UniProt P42336)
- Construct: endogenous in cells; host or cells: Jurkat (ATCC TIB-152, clone E6-1) and Ramos (ATCC CRL-1596), 1:1 lysate mix
- Sequence (P42336 whole entry, one chain of several): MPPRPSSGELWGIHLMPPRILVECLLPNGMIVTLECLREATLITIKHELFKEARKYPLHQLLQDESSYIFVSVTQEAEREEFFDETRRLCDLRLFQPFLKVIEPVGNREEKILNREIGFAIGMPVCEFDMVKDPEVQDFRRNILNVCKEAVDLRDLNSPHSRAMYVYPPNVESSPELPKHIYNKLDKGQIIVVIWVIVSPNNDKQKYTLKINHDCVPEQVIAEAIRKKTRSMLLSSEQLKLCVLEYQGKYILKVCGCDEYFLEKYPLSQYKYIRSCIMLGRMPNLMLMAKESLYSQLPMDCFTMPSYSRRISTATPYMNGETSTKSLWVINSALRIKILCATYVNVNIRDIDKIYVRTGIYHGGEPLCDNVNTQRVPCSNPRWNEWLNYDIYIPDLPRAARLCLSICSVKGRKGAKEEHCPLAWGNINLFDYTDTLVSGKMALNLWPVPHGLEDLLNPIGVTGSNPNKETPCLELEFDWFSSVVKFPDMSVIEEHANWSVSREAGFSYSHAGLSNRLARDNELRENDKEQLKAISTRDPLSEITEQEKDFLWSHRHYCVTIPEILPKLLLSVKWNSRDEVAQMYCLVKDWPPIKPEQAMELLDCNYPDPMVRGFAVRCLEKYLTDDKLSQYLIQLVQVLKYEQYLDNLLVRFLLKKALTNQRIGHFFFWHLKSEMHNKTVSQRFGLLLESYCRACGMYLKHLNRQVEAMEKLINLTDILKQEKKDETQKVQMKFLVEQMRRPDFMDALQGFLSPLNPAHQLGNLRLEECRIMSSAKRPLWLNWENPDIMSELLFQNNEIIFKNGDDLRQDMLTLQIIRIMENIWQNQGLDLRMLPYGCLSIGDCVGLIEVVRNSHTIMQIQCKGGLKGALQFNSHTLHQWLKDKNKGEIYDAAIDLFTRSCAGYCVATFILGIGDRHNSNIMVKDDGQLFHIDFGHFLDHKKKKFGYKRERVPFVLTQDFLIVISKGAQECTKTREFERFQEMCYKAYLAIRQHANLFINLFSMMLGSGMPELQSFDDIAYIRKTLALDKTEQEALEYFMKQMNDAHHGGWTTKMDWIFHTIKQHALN
- protocol: kinobeads assay, PI3Kα
- Format: binding
- assay_conditions: 1:1 mix of Jurkat and Ramos cell lysates, read-out: Inhibition values (IC50 in μM) as determined in the kinobeads assay, PI3Kα
Can you tell me IC50 for the items I'm about to list?

{"columns": ["compound", "system_tested", "IC50"],
 "data": [
  ["CC(C)N1Cc2nc(N3CCOC[C@@H]3C)nc(-c3ccc(NC(=O)NCCO)cc3)c2C1 [Example 34, 2,2,2-trifluoroacetate]", "PI3Kα (Homo sapiens, UniProt P42336)", "10 to 100 µM"],
  ["C[C@H]1COCCN1c1nc2c(c(-c3ccc(NC(=O)NC4CC4)cc3)n1)CN(C(=O)CCCN)C2 [Example 30]", "PI3Kα (Homo sapiens, UniProt P42336)", "10 to 100 µM"],
  ["CCOC(=O)Nc1ccc(-c2nc(N3CCOC[C@@H]3C)nc3c2CNC3)cc1 [Example 10]", "PI3Kα (Homo sapiens, UniProt P42336)", "10 to 100 µM"],
  ["COCCC(=O)N1Cc2nc(N3CCOC[C@@H]3C)nc(-c3ccc(NC(=O)NC4CC4)cc3)c2C1 [Example 31]", "PI3Kα (Homo sapiens, UniProt P42336)", "> 100 µM"],
  ["C[C@H]1COCCN1c1nc2c(c(-c3ccc(NC(=O)NC4CC4)cc3)n1)CN(C(=O)CC#N)C2 [Example 23]", "PI3Kα (Homo sapiens, UniProt P42336)", "10 to 100 µM"]
]}

Batch request: IC50 for each of the following compounds.
1. C[C@H]1COCCN1c1nc2c(c(-c3ccc(NC(=O)NC4CC4)cc3)n1)CN(S(=O)(=O)C1CC1)C2 [Example 35]
2. CCNC(=O)Nc1ccc(-c2nc(N3CCOCC3)nc3c2CN(C(=O)OCC)C3)cc1 [Example 7]

Result:
1: > 100 µM; 2: > 100 µM

====

Assignment: determine reported IC50 for the given compounds.
- system_tested: PI3Kβ (Homo sapiens, UniProt P42338)
- Construct: endogenous in cells; host or cells: Jurkat (ATCC TIB-152, clone E6-1) and Ramos (ATCC CRL-1596), 1:1 lysate mix
- Sequence (P42338 whole entry): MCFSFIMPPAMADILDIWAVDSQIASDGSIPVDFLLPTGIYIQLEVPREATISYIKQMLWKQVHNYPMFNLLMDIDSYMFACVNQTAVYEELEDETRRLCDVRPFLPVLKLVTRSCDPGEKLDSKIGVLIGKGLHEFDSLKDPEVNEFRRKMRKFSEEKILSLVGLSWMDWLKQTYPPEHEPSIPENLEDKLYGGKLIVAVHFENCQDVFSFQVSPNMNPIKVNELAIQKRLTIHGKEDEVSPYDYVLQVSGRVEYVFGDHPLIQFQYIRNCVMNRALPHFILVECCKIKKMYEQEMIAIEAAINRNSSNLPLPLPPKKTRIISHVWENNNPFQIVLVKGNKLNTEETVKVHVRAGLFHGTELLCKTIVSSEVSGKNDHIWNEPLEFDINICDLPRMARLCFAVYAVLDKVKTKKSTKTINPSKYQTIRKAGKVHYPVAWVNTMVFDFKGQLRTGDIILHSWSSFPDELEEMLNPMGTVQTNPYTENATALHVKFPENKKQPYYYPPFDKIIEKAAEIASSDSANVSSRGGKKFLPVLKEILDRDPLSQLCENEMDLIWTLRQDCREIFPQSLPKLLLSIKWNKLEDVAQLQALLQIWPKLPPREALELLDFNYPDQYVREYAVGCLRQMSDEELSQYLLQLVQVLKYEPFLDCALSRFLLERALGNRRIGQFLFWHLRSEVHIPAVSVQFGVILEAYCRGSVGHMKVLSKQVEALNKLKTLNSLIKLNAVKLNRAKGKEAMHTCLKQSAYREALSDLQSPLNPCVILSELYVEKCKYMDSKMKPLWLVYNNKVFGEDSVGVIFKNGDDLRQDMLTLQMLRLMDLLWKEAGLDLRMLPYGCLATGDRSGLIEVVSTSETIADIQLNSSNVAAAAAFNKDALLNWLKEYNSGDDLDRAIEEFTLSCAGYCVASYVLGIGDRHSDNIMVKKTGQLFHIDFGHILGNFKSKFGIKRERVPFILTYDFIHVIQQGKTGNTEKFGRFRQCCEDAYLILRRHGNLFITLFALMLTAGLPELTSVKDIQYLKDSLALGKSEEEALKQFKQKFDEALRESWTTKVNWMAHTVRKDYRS
- Sequence (P27986 whole entry partner): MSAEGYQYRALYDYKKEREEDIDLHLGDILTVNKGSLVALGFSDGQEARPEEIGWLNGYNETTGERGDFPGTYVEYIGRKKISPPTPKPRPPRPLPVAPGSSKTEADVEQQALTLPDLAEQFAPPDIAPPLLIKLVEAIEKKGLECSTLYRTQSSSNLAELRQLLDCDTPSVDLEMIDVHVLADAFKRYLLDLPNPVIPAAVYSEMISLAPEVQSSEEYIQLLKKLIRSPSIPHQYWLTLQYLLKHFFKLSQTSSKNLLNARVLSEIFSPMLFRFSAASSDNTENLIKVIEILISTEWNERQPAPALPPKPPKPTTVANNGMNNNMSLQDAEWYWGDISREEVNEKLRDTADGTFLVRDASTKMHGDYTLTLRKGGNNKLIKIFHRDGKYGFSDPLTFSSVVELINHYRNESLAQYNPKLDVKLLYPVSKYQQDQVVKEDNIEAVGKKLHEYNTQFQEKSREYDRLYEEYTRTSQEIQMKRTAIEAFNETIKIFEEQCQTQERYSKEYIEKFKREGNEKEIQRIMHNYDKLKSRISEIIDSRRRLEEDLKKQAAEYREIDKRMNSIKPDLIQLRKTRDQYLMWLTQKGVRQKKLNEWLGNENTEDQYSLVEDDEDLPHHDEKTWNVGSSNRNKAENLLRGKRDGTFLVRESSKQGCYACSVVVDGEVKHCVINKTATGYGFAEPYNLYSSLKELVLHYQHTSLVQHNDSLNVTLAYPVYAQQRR
- protocol: kinobeads assay, PI3Kβ
- Assay type: binding
- assay_conditions: 1:1 mix of Jurkat and Ramos cell lysates, read-out: Inhibition values (IC50 in μM) as determined in the kinobeads assay, PI3Kβ
Counter-ions that a name gives are not always drawn.

{"columns": ["compound", "system_tested", "IC50"],
 "data": [
  ["NC(=O)Nc1ccc(-c2nc(N3CCOCC3)nc3c2CNC3)cc1", "PI3Kβ (Homo sapiens, UniProt P42338)", "1 to 10 µM"],
  ["C[C@H]1COCCN1c1nc2c(c(-c3ccc(NC(=O)NCCO)cc3)n1)CN(S(C)(=O)=O)C2", "PI3Kβ (Homo sapiens, UniProt P42338)", "10 to 100 µM"],
  ["CCNC(=O)Nc1ccc(-c2nc(N3CC4CCC(C3)O4)nc3c2CNC3)cc1 [Example 44, hydrochloride]", "PI3Kβ (Homo sapiens, UniProt P42338)", "10 to 100 µM"]
]}

// switching to the query compound
Q: Please provide the recorded IC50 for "COCCC(=O)N1Cc2nc(N3CCOC[C@@H]3C)nc(-c3ccc(NC(=O)NC4CC4)cc3)c2C1" , tested on PI3Kβ (Homo sapiens, UniProt P42338).
Result: 10 to 100 µM

====

- system_tested: PI3Kδ (Homo sapiens, UniProt O00329)
- Construct: endogenous in cells; host or cells: Jurkat (ATCC TIB-152, clone E6-1) and Ramos (ATCC CRL-1596), 1:1 lysate mix
- Sequence (O00329 whole entry): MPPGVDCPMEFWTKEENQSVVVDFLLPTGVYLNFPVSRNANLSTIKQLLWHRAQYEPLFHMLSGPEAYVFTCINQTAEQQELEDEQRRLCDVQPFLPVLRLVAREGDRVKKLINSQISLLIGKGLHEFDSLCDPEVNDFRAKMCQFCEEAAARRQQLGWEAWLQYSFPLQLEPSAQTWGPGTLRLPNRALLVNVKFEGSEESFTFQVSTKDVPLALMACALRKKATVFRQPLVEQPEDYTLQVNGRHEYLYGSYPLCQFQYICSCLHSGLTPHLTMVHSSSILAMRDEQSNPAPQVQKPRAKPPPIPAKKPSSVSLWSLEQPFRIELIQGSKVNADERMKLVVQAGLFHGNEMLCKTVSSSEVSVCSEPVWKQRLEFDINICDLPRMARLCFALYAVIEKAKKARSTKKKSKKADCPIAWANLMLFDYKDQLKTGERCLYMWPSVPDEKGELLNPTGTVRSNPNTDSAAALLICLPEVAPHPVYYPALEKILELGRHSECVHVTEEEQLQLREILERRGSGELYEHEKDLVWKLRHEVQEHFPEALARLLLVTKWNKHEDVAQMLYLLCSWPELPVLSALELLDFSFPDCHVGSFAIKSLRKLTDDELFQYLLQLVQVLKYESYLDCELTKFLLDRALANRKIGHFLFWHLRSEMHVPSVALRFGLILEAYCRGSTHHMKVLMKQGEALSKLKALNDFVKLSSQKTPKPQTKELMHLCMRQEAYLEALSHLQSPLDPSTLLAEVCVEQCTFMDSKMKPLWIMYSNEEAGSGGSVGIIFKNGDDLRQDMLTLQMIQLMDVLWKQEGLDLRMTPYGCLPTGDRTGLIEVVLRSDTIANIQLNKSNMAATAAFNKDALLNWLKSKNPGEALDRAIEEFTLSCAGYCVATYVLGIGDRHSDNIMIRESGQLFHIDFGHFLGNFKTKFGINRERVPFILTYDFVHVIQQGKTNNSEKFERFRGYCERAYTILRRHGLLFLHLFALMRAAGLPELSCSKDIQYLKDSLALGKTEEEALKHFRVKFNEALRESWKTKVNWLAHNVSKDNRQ
- Sequence (P27986 whole entry partner): as the sequence (P27986 whole entry partner) above
- protocol: kinobeads assay, PI3Kδ
- Type: binding
- assay_conditions: 1:1 mix of Jurkat and Ramos cell lysates, read-out: Inhibition values (IC50 in μM) as determined in the kinobeads assay, PI3Kδ
- Procedure: The compounds of the present invention as described were tested in the mTOR kinobeads assay as described below. […] Bound proteins were then eluted and the presence of mTOR, PI3Kα, PI3Kβ, PI3Kγ, PI3Kδ and DNA-dependent protein kinase (DNA-PK) was detected and quantified using a specific antibody in a dot blot procedure and the Odyssey infrared detection system. Dose response curves for individual kinases were generated and IC50 values calculated. […]
Where a name gives a salt, the structure may show the parent alone.
assay_endpoint: IC50

Examples with their reported IC50 follow.
{"columns": ["compound", "IC50"],
 "data": [
  ["C[C@H]1COCCN1c1nc2c(c(-c3ccc(NC(=O)NC4CC4)cc3)n1)CN(C(=O)CCN(C)C)C2 [Example 21]", "10 to 100 µM"],
  ["C[C@H]1COCCN1c1nc2c(c(-c3ccc(NC(=O)NC4CC4)cc3)n1)CN(C(=O)CO)C2 [Example 22]", "1 to 10 µM"],
  ["CC(C)N1Cc2nc(N3CCOC[C@@H]3C)nc(-c3ccc(NC(=O)NCCC#N)cc3)c2C1 [Example 52, 2,2,2-trifluoroacetate]", "> 100 µM"],
  ["NC(=O)Nc1ccc(-c2nc(N3CCOCC3)nc3c2CNC3)cc1 [Example 6]", "1 to 10 µM"],
  ["C[C@H]1COCCN1c1nc2c(c(-c3ccc(NC(=O)Nc4cccc(O)n4)cc3)n1)CNC2 [Example 25]", "10 to 100 µM"]
]}

The following compounds each have a reported value; give each one's IC50.
1. CCNC(=O)Nc1ccc(-c2nc(N3CC4CCC(C3)O4)nc3c2CNC3)cc1 [Example 44, hydrochloride]
2. C[C@@H]1COCCN1c1nc2c(c(-c3ccc(NC(=O)NC4CC4)cc3)n1)CNC2 [Example 26]
3. CCNC(=O)Nc1ccc(-c2nc(N3CCOC[C@@H]3C)nc3c2CN(C=O)C3)cc1 [Example 3]
4. CCNC(=O)N1Cc2nc(N3CCOC[C@@H]3C)nc(-c3ccc(NC(=O)NC4CC4)cc3)c2C1 [Example 17]
5. C[C@H]1COCCN1c1nc2c(c(-c3ccc(NC(=O)NC4CC4)cc3)n1)CN(C(=O)CCN)C2 [Example 29]
6. C[C@H]1COCCN1c1nc2c(c(-c3ccc(NC(=O)NC4CC4)cc3)n1)CN(C(=O)CN)C2 [Example 28]
7. C[C@H]1COCCN1c1nc2c(c(-c3ccc(NC(=O)NCCO)cc3)n1)CN(S(C)(=O)=O)C2 [Example 36]
8. CCNC(=O)N1Cc2nc(N3CCOC[C@@H]3C)nc(-c3ccc(NC(=O)NCCO)cc3)c2C1 [Example 37]

Result:
10 to 100 µM
10 to 100 µM
10 to 100 µM
> 100 µM
10 to 100 µM
10 to 100 µM
10 to 100 µM
10 to 100 µM

====

- system_tested: PI3Kβ (Homo sapiens, UniProt P42338)
- Construct: endogenous in cells; host or cells: Jurkat (ATCC TIB-152, clone E6-1) and Ramos (ATCC CRL-1596), 1:1 lysate mix
- protocol: kinobeads assay, PI3Kβ
- Format: binding
- assay_conditions: 1:1 mix of Jurkat and Ramos cell lysates, read-out: Inhibition values (IC50 in μM) as determined in the kinobeads assay, PI3Kβ
Where a name gives a salt, the structure may show the parent alone.
Record form. Attribute: IC50. Fill in for each entry.

Look over these answered cases.
{"columns": ["molecule", "IC50"],
 "data": [
  ["CC(C)N1Cc2nc(N3CCOC[C@@H]3C)nc(-c3ccc(NC(=O)NC4CC4)cc3)c2C1 [Example 13]", "> 100 µM"],
  ["C[C@@H]1COCCN1c1nc2c(c(-c3ccc(NC(=O)NC4CC4)cc3)n1)CNC2 [Example 26]", "10 to 100 µM"],
  ["C[C@H]1COCCN1c1nc2c(c(-c3ccc(NC(=O)NC4CC4)cc3)n1)CN(C(=O)CCCN(C)C)C2 [Example 32]", "1 to 10 µM"],
  ["CCNC(=O)Nc1ccc(-c2nc(N3CCOCC3)nc3c2CNC3)cc1 [Example 4]", "10 to 100 µM"],
  ["CCNC(=O)Nc1ccc(-c2nc(N3CC4CCC(C3)O4)nc3c2CN(C(C)C)C3)cc1 [Example 49, 2,2,2-trifluoroacetate]", "> 100 µM"],
  ["C[C@H]1COCCN1c1nc2c(c(-c3ccc(NC(=O)NC4CC4)cc3)n1)CN(C(=O)CN1CCOCC1)C2 [Example 47, 2,2,2-trifluoroacetate]", "10 to 100 µM"]
]}

Now take the following molecule into account.
Q: Request: IC50, test system PI3Kβ (Homo sapiens, UniProt P42338), entry O=C(NCCO)Nc1ccc(-c2nc(N3CC4CCC(C3)O4)nc3c2CNC3)cc1 [Example 43, hydrochloride]
Result: > 100 µM

Provenance of the data: patent US20140163023A1
